Record: log10 IC50 reported on PI3-kinase p110-alpha/p85-alpha (Homo sapiens).
Sequence (P27986 whole entry): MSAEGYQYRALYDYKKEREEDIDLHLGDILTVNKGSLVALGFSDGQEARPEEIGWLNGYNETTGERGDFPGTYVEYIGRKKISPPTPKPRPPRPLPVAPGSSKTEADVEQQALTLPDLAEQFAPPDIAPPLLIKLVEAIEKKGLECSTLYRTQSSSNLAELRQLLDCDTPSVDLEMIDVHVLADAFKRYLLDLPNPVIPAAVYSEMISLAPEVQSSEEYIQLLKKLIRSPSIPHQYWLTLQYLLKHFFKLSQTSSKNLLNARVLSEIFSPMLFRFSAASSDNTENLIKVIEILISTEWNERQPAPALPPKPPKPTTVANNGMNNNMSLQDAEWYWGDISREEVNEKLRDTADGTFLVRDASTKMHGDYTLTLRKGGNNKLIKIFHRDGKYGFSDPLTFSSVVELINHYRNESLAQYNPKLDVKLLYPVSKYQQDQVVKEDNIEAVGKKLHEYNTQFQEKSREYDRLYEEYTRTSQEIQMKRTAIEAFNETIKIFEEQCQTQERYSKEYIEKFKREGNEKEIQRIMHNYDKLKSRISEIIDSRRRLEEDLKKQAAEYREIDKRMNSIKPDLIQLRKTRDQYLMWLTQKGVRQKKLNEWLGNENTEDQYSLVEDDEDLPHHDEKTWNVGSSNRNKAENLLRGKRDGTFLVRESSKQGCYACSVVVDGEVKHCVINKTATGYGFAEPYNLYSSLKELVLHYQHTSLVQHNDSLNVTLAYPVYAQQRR
Sequence (P42336 whole entry): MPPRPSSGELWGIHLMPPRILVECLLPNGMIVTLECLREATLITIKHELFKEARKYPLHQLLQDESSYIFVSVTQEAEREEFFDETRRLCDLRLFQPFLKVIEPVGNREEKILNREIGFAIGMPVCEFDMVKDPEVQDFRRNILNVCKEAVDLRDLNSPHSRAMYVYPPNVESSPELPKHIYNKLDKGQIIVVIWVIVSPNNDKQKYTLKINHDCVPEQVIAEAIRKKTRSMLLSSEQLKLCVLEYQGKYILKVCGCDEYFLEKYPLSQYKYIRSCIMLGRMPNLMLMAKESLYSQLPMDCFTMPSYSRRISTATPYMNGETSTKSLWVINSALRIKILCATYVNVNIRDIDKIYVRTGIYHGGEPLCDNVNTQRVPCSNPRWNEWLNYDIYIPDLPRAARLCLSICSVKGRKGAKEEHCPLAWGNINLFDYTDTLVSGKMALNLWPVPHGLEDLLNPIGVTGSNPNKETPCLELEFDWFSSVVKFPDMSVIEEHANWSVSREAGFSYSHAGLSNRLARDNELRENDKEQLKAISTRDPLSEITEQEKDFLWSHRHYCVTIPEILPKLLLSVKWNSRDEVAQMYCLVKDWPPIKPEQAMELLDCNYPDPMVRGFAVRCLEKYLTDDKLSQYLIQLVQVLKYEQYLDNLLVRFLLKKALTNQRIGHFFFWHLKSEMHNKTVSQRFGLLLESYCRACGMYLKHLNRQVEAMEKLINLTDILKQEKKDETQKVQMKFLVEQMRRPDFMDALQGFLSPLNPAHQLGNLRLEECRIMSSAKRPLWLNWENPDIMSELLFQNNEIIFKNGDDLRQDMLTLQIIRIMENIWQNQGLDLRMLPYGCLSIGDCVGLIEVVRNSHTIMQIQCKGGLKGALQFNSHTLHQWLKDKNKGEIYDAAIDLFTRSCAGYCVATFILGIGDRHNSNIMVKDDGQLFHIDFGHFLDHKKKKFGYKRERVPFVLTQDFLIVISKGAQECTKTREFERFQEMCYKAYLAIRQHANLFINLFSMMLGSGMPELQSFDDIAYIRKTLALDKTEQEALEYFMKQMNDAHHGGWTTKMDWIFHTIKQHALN
The figures below represent log10 of IC50, where IC50 is stated in µM.

Field: example entries. Status: answers known.
{"compound-string": "Cc1cc(-c2ccn3ncc(-c4cnn(C)c4)c3n2)cc2c1C(=O)N([C@@H](C)C1CC1)C2", "log10 IC50": 0.62}
{"compound-string": "Cc1cc(-c2c(N)nn3ccc(-c4cc(C)c5c(c4)CN([C@@H](C)C4CC4)C5=O)nc23)ccc1C(=O)O", "log10 IC50": -1.02}
{"compound-string": "Cc1cc(-c2ccn3nc(N)c(-c4nc[nH]n4)c3n2)cc2c1C(=O)N([C@@H](C)C1CC1)C2", "log10 IC50": 0.80}
{"compound-string": "C[C@@H](C1CC1)N1Cc2cc(-c3ccn4nc(N)c(-c5cnn(C)c5)c4n3)cc(C(F)(F)F)c2C1=O", "log10 IC50": 0.29}

Okay, now this compound:
// compound CC(=O)Nc1cc2nc(-c3cc4c(c(C(F)(F)F)c3)C(=O)N([C@@H](C)C3CC3)C4)ccn2n1 , assay PI3-kinase p110-alpha/p85-alpha (Homo sapiens), log10 IC50 value: 0.92
